Data provenance: the supplement of paper PMC9170038

tested on: MS2 coat protein; assay: apparent KD of MS2 coat protein; designed switch direction (-1 OFF switch, 1 ON switch): -1; higher = weaker reporter binding; details: Eterna round: R95; input ligand: microRNA oligo, concentration not stated
Value Type: apparent KD of MS2 coat protein (nM)
Kindly answer with a numeric value in nM, unit omitted.

AAUAACAGAGGAUAUACUAUUUUAUGUGUUUGUUAUUUUGAACAUGAGGAUCACCCAUGUAGAAGGCUGAGUAA [JMF 36] (puzzle: Exclusion 2); 26.8
GUGUAGACAGGAUAUGCUUUGAGCGUAUGAGAGUAGGCUCGACAUGAGGAUCACCCAUGUAGAAGGGUCUACAC [LRO-Excl2-03] (puzzle: Exclusion 2); 10.1
CUUUUGUGAGGAUAUCAGUAGUAUAAAAUUAAAAUUACUACUGAGAAGGCACAUGAGGAUCACCCAUGUUCCUC [Mat - Exclusion 4 - Mod of Salish - D75] (puzzle: Exclusion 4); 36
UGAGGACAUGAGGAUCACCCAUGUAAGGAUAUGCGGAGAGAUUGGAGAGGUCGAGGAGGCAGAAGGUACAGGAC [JR_Exclu1_Sub049] (puzzle: Exclusion 1); 68

apparent KD of MS2 coat protein for AACCCUUGUGUUAGGAUAUGUCACUACCAUAUGCGACAGAAGGAACAUGAGGAUCACCCAUGUGAGUUAGCCAA [Quesveququ] (puzzle: Brourd's mod of Exclusion 4) ?
36
